System: NIH3T3
experiment: qHTS assay to identify novel small-molecules to repurpose for Merkel cell carcinoma treatment (AID 1296009); further: nearly all actives have a fitted effect of over 60% in size
reported conditions: MCC and control cell lines, CellTiter-Glo viability, 72 h; at 44.8 µM (top of the series) unless noted
Records with an inconclusive call do not appear. Calls of active or inactive are those of the source. The call rests on the fitted dose curve; in most records, active means well fitted inhibition curve with a large enough effect; inconclusive means small, poorly fitted or top-dose-only effect; inactive means flat fitted curve, though single readings scatter.

{"molecule": "COc1cccc(-c2ccc([C@@H](Oc3cc(-c4ccc(C[C@H](N)C(=O)O)cc4)nc(N)n3)C(F)(F)F)cc2)c1", "test target": "NIH3T3", "outcome": "inactive"}
{"molecule": "CC1=C2C3OC(=O)C(C)C3(O)CCC2(C)CCC1=O (centres undefined)", "test target": "NIH3T3", "outcome": "inactive"}

The measured values listed here are drawn from PubChem BioAssay (NCATS).
